- System name: T1, recombinant soluble HLA-DR2 (DRA/DRB1*1501) (human, UniProt P01903 26-216; P01911 30-227, limits assumed)
- T1 construct: extracellular domain; also called HLA-DR2 (DRB1*1501); soluble HLA-DR2 molecules
- Protocol summary: competition ELISA: soluble HLA-DR2, biotinylated MBP85-99 (0.5 µM), unlabeled competitor (1 µM); capture on LB3.1 antibody
Measured % inhibition accompanies every entry in the list below.
Assay endpoint: % inhibition (%)

>>> test_result("EKAKYEAYKAAAAAA (also called peptide J1) [J1]")
18
>>> test_result("APEKAKVEAFKAAAAPA (also called peptide J10) [J10]")
5
>>> test_result("EKAKFEAFKAAAAAA (also called peptide J7) [J7]")
19
>>> test_result("EKPKEEAFKAAAAPA (Control peptide with E at the putative P1 position; also called peptide J6) [J6]")
0
>>> test_result("APEKAKFEAFKAAAAPA (also called peptide J8) [J8]")
34
>>> test_result("EAKKYEAYKAAAAAA (also called peptide J11) [J11]")
0
>>> test_result("EKAKEEAYKAAAAAA (Control peptide with E at the putative P1 position; also called peptide J4) [J4]")
0

Reference source: patent US20070264229A1
